All values here come from PubChem BioAssay.

Recorded composite z-score by entry
# Tested on: Inhibin beta A chain (activin A)
# method: small molecules binding activin A – biochemical, small-molecule microarray, 635 nm fluorescence scan, primary screen (AID 1107);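 note: mouse activin A protein probed at 4.33 µg/mL on printed slides; score merges bound-protein fluorescence near 667 nm with spot signal-to-noise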
# condition-info: INHBA, higher = more signal
readout: composite z-score

CC(C)C(O)C1C=CC2C(=O)NC(=O)C2N1Nc1ccccn1 (stereo not drawn)	1.4
C=CC[C@@]1(C(=O)N(C)C)N=C(c2ccc(OCCCO)cc2)O[C@@H]1c1ccccc1CN=[N+]=[N-]	1.23
C=CCC(OC(C)=O)[C@@H]1[C@@H](N(Cc2ccc(-c3cccc(C(F)(F)F)c3)o2)C(=O)Cc2ccc(F)cc2)c2cc(OCCCO)ccc2N1C(=O)Cc1ccc2ccccc2c1 (stereo partly drawn)	1.12
CN1C(=O)C2C(C1=O)C1C=C(CCCO)C2C(C2CC2)N1Cc1cccc(OC(F)(F)F)c1 (stereo not drawn)	0.722
CCCCC(=C=CC[C@H](O)c1ccc(CO)o1)CCO	0.839
CCOC(=O)C1=CCC(c2cc3ccccc3[nH]2)N(CCN2CC(C(=O)OCC)=CCC2c2cc3ccccc3[nH]2)C1 (stereo not drawn)	1.14
C=C(COC)C(=O)CC[C@@H](OC(=O)c1ccccc1-c1ccccc1C(=O)O)c1ccc(OCCO)cc1	1.08
C=CCOC(=O)[C@@H]1[C@H]2C(=O)O[C@H](c3ccccc3)[C@H](c3ccccc3)N2[C@H](c2ccc(OCCOC(=O)[C@H]3C[C@H]4C(=O)N[C@@H](CCCCN(C)C)C(=O)N4[C@H]3c3ccc(O)cc3)cc2)[C@@]12C(=O)Nc1ccc(I)cc12	0.291

* * *

# method: probe aDKK1 binding to arrayed compounds – biochemical, biotinylated probe, 635/667 nm fluorescence, primary screen (AID 1099);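 note: score merges 667nm spot fluorescence with signal to noise across triplicate slides; reference of the scale not given here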
# condition-info: small-molecule microarray, higher = more signal
readout: composite z-score

CCCN1C(=O)[C@@]2(c3ccc([N+](=O)[O-])cc3)CC(=O)N(CC34CC5CC(CC(C5)C3)C4)[C@@H]2c2ccc(CO)cc21	0.0721
C=C(CCCC)/C(=C/C[C@H](OC(=O)c1ccncc1)c1ccccc1OCCO)c1cc(C(=O)OC)ccc1OC	-0.126
COCCOC(=O)N1C(=O)[C@@]2(c3cc(C#CCCO)ccc31)[C@H](c1ccccc1OCCO)N1[C@H](c3ccccc3)[C@H](c3ccccc3)OC(=O)[C@H]1[C@@H]2C(N)=O	-0.154
COC(=O)[C@@]1(Cc2ccccc2)[C@H]2c3cc(C(=O)N(C)C)n(CCO)c3C[C@H]2CN1C(=O)c1ccccc1	1.25

* * *

# assay-system: Left-right determination factor 2 (Homo sapiens)
# method: small molecules binding LEFTY2 protein – biochemical, small-molecule microarray, 635 nm fluorescence scan, primary screen (AID 1110)
# condition-info: higher = more signal
Rule: composite z-score of 0.03 or more gives true; anything lower gives false.

COCCOC(=O)N1C(=O)[C@@]2(c3cc(C#CCC(C(=O)OC)C(=O)OC)ccc31)[C@H](C(=O)Nc1nc3ccccc3s1)[C@H]1C(=O)O[C@H](c3ccccc3)[C@H](c3ccccc3)N1[C@@H]2c1ccc(OCCO)cc1	true
COCCOC(=O)N1C(=O)[C@@]2(c3ccccc31)[C@H](c1ccc(O)cc1)N1[C@H](c3ccccc3)[C@H](c3ccccc3)OC(=O)[C@H]1[C@@H]2C(=O)N1CCCCCCC1	true
C=CC1c2cc(O)c(OC)cc2CCN1C (stereo not given)	false
CN(C)CCCCNC(=O)[C@H]1C[C@H]2C(=O)N3CCC[C@H]3C(=O)N2[C@H]1c1cccc(OCCO)c1	false
CCOC(=O)C[C@H]1[C@H](OC(=O)c2cc3ccccc3oc2=O)[C@@H](NC(=O)CC(C)C)c2cc(OCCCO)ccc2N1C(=O)Cc1ccc(OC)cc1	true
CCOC(=O)C[C@H]1[C@H](OC(=O)c2ccccc2-c2ccccc2)[C@@H](NC(=O)c2ccc3ccccc3c2)c2cc(OCCCO)ccc2N1C(=O)Cc1ccc(OC)cc1	true
COc1cc(CO)cc(I)c1O[C@H]1C=C(C(=O)NCCO)C[C@@H]2O[C@H]12	true
COc1ccc(C(=O)Nc2ccc(CN3C(=O)[C@@]4(O[C@@H](CCn5cc(CCO)nn5)[C@H]([Si](C)(C)c5ccc(OC)cc5)[C@H]4C)c4ccccc43)cc2)cc1	true
CCCN1C(=O)[C@]2(CCC(=O)OC(C)(C)C)N=C(c3ccc(OCCCO)cc3)O[C@@H]2c2ccccc21	false
N#Cc1ccc(-c2cccc(=O)o2)cc1	false
Cc1ccc(S[C@]2(C(=O)NC(C)C)CC(=O)N(C3CCCCC3)[C@@H]2c2ccc(CO)cc2I)cc1	false
Cc1ccc(S[C@]2(C(=O)NCCCN(C)C)CC(=O)N(Cc3ccccc3C(F)(F)F)[C@@H]2c2ccc(CO)cc2I)cc1	false
CCCCC(O)C1C=CC2C(=O)N(c3ccccc3)C(=O)C2N1Nc1ccccc1 (stereo not given)	false
COC(=O)[C@@]1(Cc2ccc(F)cc2)[C@H]2c3cc(C(=O)N(C)C)n(CCc4ccc(O)c(O)c4)c3C[C@H]2CN1C(=O)c1ccccc1	false
COc1ccc([Si](C)(C)[C@H]2[C@H](CC(=O)N3Cc4ccccc4C[C@H]3CO)O[C@@]3(C(=O)N(C)c4ccccc43)[C@@H]2C)cc1	true
